Molecular target: recombinant human Nav1.7 (Homo sapiens (Human), UniProt Q15858)
Sequence (Q15858 whole entry): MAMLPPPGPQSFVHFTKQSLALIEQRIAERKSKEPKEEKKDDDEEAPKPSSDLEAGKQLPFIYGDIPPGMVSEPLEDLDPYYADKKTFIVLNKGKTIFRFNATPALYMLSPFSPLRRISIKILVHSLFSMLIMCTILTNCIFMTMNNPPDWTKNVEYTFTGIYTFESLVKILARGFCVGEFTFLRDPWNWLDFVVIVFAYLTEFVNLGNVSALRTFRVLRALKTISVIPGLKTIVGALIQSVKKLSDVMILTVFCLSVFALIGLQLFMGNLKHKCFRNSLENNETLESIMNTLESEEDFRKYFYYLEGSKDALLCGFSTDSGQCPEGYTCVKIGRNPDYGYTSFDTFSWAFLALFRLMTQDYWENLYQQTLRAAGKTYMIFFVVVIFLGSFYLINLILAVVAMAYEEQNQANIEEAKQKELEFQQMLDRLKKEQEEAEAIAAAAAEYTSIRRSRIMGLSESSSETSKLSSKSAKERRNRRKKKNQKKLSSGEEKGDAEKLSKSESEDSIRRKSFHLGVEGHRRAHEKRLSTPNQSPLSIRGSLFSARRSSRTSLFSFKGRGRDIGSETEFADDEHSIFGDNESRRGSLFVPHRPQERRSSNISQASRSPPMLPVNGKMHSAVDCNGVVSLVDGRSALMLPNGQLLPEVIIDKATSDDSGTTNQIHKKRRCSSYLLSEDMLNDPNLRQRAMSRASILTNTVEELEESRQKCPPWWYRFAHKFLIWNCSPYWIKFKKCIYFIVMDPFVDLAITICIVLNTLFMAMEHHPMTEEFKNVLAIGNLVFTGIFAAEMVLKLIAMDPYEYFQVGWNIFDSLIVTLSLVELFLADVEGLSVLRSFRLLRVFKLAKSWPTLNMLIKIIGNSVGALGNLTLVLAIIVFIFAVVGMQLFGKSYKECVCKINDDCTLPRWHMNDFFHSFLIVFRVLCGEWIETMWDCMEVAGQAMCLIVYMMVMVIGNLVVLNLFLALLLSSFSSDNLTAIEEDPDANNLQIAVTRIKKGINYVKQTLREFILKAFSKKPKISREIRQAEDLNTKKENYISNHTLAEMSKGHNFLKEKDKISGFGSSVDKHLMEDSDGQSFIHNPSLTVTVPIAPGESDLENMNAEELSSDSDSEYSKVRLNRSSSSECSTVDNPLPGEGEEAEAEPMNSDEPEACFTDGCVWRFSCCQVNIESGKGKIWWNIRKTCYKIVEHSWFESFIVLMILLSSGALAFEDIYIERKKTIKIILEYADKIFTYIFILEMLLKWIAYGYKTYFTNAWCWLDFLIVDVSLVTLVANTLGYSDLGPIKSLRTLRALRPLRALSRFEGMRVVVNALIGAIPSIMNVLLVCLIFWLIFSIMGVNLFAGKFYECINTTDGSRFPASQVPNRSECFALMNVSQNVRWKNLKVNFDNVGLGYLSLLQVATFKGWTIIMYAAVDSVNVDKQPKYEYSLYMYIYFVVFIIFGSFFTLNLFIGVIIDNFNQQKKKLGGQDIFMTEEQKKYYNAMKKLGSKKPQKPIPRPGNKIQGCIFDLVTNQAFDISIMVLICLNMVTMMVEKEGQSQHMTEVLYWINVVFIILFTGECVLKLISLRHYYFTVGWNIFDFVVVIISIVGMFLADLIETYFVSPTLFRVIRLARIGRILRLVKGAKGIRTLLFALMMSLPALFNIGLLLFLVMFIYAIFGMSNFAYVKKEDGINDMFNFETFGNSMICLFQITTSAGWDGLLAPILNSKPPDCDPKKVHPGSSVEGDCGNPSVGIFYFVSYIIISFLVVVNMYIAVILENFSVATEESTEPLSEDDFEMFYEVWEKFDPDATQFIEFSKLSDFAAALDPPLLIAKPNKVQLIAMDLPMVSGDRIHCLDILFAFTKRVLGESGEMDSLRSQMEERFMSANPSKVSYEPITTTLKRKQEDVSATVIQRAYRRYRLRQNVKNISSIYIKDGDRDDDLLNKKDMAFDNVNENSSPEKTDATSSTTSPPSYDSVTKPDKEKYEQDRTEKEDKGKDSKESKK
Assay: FRET-based membrane potential assay, recombinant human sodium channel Nav1.7
Type: cell-based
Details: HEK293 cells stably expressing recombinant human Nav1.7; veratridine + scorpion venom depolarization; read-out: FRET-Membrane Potential Nav1.7 IC50
Description: FRET-Based Membrane Potential Assays. Recombinant, Human Sodium Channel, Nav1.7. On the day of the assay, medium was removed by aspiration, and cells were washed with assay buffer [HBSS (Invitrogen, Carlsbad, Calif.) containing 20 mM HEPES (Invitrogen, Carlsbad, Calif.)]. […] Cells were incubated for 40 minutes at room temperature in the dark. […] Fluorescence readings were made using a FLIPR®^TETRA (Molecular Devices, Sunnyvale Calif.) equipped with voltage-sensor probe optics. […]
Overview of recorded IC50 for various compounds

Compound	Value prefix	IC50 [µM]
COCCNC(=O)c1ccc2cc(Oc3ccc(C(F)(F)F)nc3)ccc2n1 [Example 56]	=	3.01
CC(=O)Nc1ncc(S(=O)(=O)N2CCN(C(=O)c3ccc4cc(Oc5ccc(C(F)(F)F)cn5)ccc4n3)CC2)s1 [Example 389]	=	9.22
C[C@@H]1CN2CC(F)(F)C[C@@H]2CN1C(=O)c1ccc2cc(Oc3ccc(C(F)(F)F)cn3)ccc2n1 [Example 358]	=	1.31
CN1CCCN(C(=O)c2ccc3cc(Oc4ccc(C(F)(F)F)cn4)ccc3n2)CC1 [Example 260]	=	1.04
O=C(c1ccc2cc(Oc3ccc(C(F)(F)F)cn3)ccc2n1)N1C[C@@H](O)C[C@@H]1c1cc(F)ccc1F [Example 223]	=	2.79
O=C(c1ccc2cc(Oc3ncc(F)cn3)ccc2n1)N1CCNCC1 [Example 244]	>	20
COc1cccc(N2CCN(C(=O)c3ccc4cc(Oc5ccc(C(F)(F)F)cn5)ccc4n3)CC2=O)c1 [Example 498]	=	0.923
O=C(c1ccc2cc(Oc3ccc(C(F)(F)F)cn3)ccc2n1)N1CCNCC(F)C1 (centres unmarked) [Example 406]	=	1.06
O=C(c1ccc2cc(Oc3ccc(C(F)(F)F)cn3)ccc2n1)N1CCN(S(=O)(=O)C2CCS(=O)(=O)C2)CC1 (centres unmarked) [Example 386]	>	20
COCO[C@H]1CN(C(=O)c2ccc3cc(Oc4ccc(C(F)(F)F)cn4)ccc3n2)C[C@H]1O (relative stereo) [Example 368]	=	1.25
O=C1NCCN2CCN(C(=O)c3ccc4cc(Oc5ccc(C(F)(F)F)cn5)ccc4n3)CC12 (centres unmarked) [Example 169]	=	17.2
O=C(c1ccc2cc(Oc3ccc(C(F)(F)F)cn3)ccc2n1)N1CCn2cnnc2C1 [Example 170]	=	8.87
O=C1CN(C(=O)c2ccc3cc(Oc4ccc(C(F)(F)F)cn4)ccc3n2)CCN1 [Example 172]	=	10.5
O=C(N[C@@H]1CCNC[C@H]1F)c1ccc2cc(Oc3ccc(C(F)(F)F)cn3)ccc2n1 [Example 584]	=	0.304
N#Cc1ccc(Oc2ccc3nc(C(=O)N4CCOCC4)ccc3c2)cc1 [Example 83]	>	20
O=C(c1ccc2cc(Oc3ccc(C(F)(F)F)cn3)ccc2n1)N1CCC(N2CCOCC2)CC1 [Example 11]	=	1.61
O=C(NC1CS(=O)(=O)C1)c1ccc2cc(Oc3ccc(C(F)(F)F)cn3)ccc2n1 [Example 504]	=	0.593
CC1(O)CCN(C(=O)c2ccc3cc(Oc4ccc(C(F)(F)F)cn4)ccc3n2)CC1 [Example 255]	=	12.1
COCCN(CCOC)C(=O)c1ccc2cc(Oc3ccc(C(F)(F)F)cn3)ccc2n1 [Example 379]	=	3.39
NS(=O)(=O)CCNC(=O)c1ccc2cc(Oc3ccc(C(F)(F)F)cn3)ccc2n1 [Example 317]	=	3.01
CC(=O)NCCCNC(=O)c1ccc2cc(Oc3ccc(C(F)(F)F)cn3)ccc2n1 [Example 613]	=	2.21
O=C(c1ccc2cc(Oc3ccc(C(F)F)cn3)ccc2n1)N1CCN[C@H](CO)C1 [Example 585]	>	20
NC(=O)C1CN(C(=O)c2ccc3cc(Oc4ccc(C(F)(F)F)cn4)ccc3n2)CCN1 (centres unmarked) [Example 402]	=	9.07
Cc1ccc(CNC(=O)c2ccc3cc(Oc4ccc(C#N)cc4)ccc3n2)cc1 [Example 103]	>	20
CCN1CC(NC(=O)c2ccc3cc(Oc4ccc(C(F)F)cn4)ccc3n2)CC1=O (centres unmarked) [Example 46]	=	0.344
O=C(c1ccc2cc(Oc3ccc(C(F)(F)F)cn3)ccc2n1)N1CCN(C2CC2)CC1 [Example 261]	=	6.31
O=C1CCC2N1CCCN2C(=O)c1ccc2cc(Oc3ccc(C(F)(F)F)cn3)ccc2n1 (centres unmarked) [Example 614]	=	12.2
Cc1cc(C)nc(Oc2ccc3nc(C(=O)NC4CCS(=O)(=O)C4)ccc3c2)n1 (centres unmarked) [Example 162]	>	20
O=C(c1ccc2cc(Oc3ccc(C(F)(F)F)cn3)ccc2n1)N1CC(O)C(F)C1 (centres unmarked) [Example 292]	=	3.26
CN1C(=O)CN(C(=O)c2ccc3cc(Oc4ccc(C(F)(F)F)cn4)ccc3n2)CC12COC2 [Example 188]	=	9.53
O=C(c1ccc2cc(Oc3ccc(C(F)(F)F)cn3)ccc2n1)N1CCN(S(=O)(=O)N2CCOCC2)CC1 [Example 185]	>	20
O=C(NC1CCC(F)(F)CC1)c1ccc2cc(Oc3ccc(C(F)(F)F)nc3)ccc2n1 [Example 511]	=	1.98
